# TESTED_TARGET: Poly [ADP-ribose] polymerase tankyrase-2 (Homo sapiens)
# Sequence (Q9H2K2 whole entry): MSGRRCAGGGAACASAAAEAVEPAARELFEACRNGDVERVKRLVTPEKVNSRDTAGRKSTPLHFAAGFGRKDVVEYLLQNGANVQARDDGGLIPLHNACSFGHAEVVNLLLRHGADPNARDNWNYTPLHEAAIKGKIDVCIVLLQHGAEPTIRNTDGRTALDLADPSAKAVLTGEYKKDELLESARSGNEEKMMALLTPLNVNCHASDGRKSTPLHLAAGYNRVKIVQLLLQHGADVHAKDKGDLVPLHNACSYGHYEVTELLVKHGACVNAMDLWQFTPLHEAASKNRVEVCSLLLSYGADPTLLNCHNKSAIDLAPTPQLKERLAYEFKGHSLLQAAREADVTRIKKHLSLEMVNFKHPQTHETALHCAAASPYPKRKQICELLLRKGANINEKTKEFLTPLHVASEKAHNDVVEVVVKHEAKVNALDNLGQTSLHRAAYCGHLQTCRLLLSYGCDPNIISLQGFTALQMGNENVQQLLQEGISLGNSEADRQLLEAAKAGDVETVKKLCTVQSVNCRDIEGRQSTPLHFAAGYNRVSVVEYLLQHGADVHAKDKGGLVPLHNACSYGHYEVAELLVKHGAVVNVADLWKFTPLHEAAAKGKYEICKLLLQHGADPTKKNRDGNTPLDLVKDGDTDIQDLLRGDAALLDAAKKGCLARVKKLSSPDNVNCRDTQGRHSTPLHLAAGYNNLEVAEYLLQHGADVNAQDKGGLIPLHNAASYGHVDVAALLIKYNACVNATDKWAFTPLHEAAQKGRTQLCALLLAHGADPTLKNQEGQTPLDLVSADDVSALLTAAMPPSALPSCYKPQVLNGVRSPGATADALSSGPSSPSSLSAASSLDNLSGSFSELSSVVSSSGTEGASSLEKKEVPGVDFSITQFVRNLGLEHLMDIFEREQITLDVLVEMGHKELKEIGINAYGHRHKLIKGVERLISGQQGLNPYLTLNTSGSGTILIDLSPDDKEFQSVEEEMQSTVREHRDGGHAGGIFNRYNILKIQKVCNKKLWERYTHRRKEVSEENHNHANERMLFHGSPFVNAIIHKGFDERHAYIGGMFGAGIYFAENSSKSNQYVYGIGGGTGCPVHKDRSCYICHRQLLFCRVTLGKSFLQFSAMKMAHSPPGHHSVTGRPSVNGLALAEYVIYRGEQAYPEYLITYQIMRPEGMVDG
PROPERTY_LABEL: IC50

1) O=C(N[C@H]1C[C@H](c2nnc(-c3nccs3)n2-c2ccccc2F)C1)c1ccnc2cc(F)cnc12; 2 nM
